# test-details: Autosampler stability of ready for injection samples
# Type: physicochemical, human
# condition-set: validation standard LLOV
readout: Autosampler (72h, 4°C) Accuracy [%] (%)
Answer in %, number only, no unit symbol.

Consider the reported Autosampler (72h, 4°C) Accuracy [%] for these compounds:
compound	recorded-number
COc1cc2ncnc(Nc3ccc(F)c(Cl)c3)c2cc1OCCCN1CCOCC1	90.7
CCC1=C[C@@H]2CN(C1)Cc1c([nH]c3ccccc13)[C@@](C(=O)OC)(c1cc3c(cc1OC)N(C)[C@H]1[C@@](O)(C(=O)OC)[C@H](OC(C)=O)[C@]4(CC)C=CCN5CC[C@]31[C@@H]54)C2	67.9
COC(=O)c1ccc2c(c1)NC(=O)/C2=C(\Nc1ccc(N(C)C(=O)CN2CCN(C)CC2)cc1)c1ccccc1	99.8
Cc1cn(-c2cc(NC(=O)c3ccc(C)c(Nc4nccc(-c5cccnc5)n4)c3)cc(C(F)(F)F)c2)cn1	92.6
Cc1c(C(=O)Nc2ccc(N3C[C@@H](C)O[C@@H](C)C3)nc2)cccc1-c1ccc(OC(F)(F)F)cc1	100.0

INPUT: Give the measured Autosampler (72h, 4°C) Accuracy [%] of CC1(C)CCC(CN2CCN(c3ccc(C(=O)NS(=O)(=O)c4ccc(NCC5CCOCC5)c([N+](=O)[O-])c4)c(Oc4cnc5[nH]ccc5c4)c3)CC2)=C(c2ccc(Cl)cc2)C1 .
OUTPUT: 103.3

INPUT: Give the measured Autosampler (72h, 4°C) Accuracy [%] of CNC(=O)c1ccc(N2C(=S)N(c3cnc(C#N)c(C(F)(F)F)c3)C(=O)C23CCC3)cc1F [Apalutamide] .
OUTPUT: 102.8

###

# test-details: Long-term stability in spiked pooled human plasma
# condition-set: validation standard 2xLLOV
readout: Long-term stability, 3 month, -20°C Accuracy [%]
Write the numeric value and append its unit.

Consider the reported Long-term stability, 3 month, -20°C Accuracy [%] for these molecules:
molecule	result
Cc1[nH]c2ccccc2c1CCNCc1ccc(/C=C/C(=O)NO)cc1 [Panobinostat]	57.5%
N#CC[C@H](C1CCCC1)n1cc(-c2ncnc3[nH]ccc23)cn1 [Ruxolitinib]	97.5%
Cc1cc(Nc2ncc(Cl)c(Nc3ccccc3S(=O)(=O)C(C)C)n2)c(OC(C)C)cc1C1CCNCC1 [Ceritinib]	91.8%

Consider now this further molecule.
INPUT: Give the measured Long-term stability, 3 month, -20°C Accuracy [%] of CCOc1cc2ncc(C#N)c(Nc3ccc(OCc4ccccn4)c(Cl)c3)c2cc1NC(=O)/C=C/CN(C)C [Neratinib] .
OUTPUT: 70.3%

###

Items are presented alongside their recorded Autosampler (72h, 4°C) Accuracy [%].
# test-details: Autosampler stability of ready for injection samples
# Format: physicochemical, human
# condition-set: validation standard ULOV
Answer in %, number only, no unit symbol.

Consider the reported Autosampler (72h, 4°C) Accuracy [%] for these compounds:
compound	unit-tag	Autosampler (72h, 4°C) Accuracy [%]
Cc1[nH]c2ccccc2c1CCNCc1ccc(/C=C/C(=O)NO)cc1 [Panobinostat]	%	101.1
N#CC[C@H](C1CCCC1)n1cc(-c2ncnc3[nH]ccc23)cn1 [Ruxolitinib]	%	99.7
COc1cc2nccc(Oc3ccc(NC(=O)Nc4cc(C)on4)c(Cl)c3)c2cc1OC [Tivozanib]	%	103.1

INPUT: Give the measured Autosampler (72h, 4°C) Accuracy [%] of O=C1CN2Cc3c(ccc(Cl)c3Cl)N=C2N1 [Anagrelide] .
OUTPUT: 98.2

INPUT: Give the measured Autosampler (72h, 4°C) Accuracy [%] of COc1cc2ncnc(Nc3ccc(F)c(Cl)c3)c2cc1NC(=O)/C=C/CN1CCCCC1 [Dacomitinib] .
OUTPUT: 98.0

###

Items are presented alongside their recorded Long-term stability, 3 month, -80°C Accuracy [%].
# test-details: Long-term stability in spiked pooled human plasma
# condition-set: validation standard 2xLLOV
Answer in %, number only, no unit symbol.

Consider the reported Long-term stability, 3 month, -80°C Accuracy [%] for these molecules:
molecule	recorded-number
CC(=O)Nc1cccc(-n2c(=O)n(C3CC3)c(=O)c3c(Nc4ccc(I)cc4F)n(C)c(=O)c(C)c32)c1	103.8
CNC(=O)c1ccccc1Sc1ccc2c(/C=C/c3ccccn3)n[nH]c2c1	100.1

INPUT: Give the measured Long-term stability, 3 month, -80°C Accuracy [%] of O=c1[nH]c(=O)n([C@H]2C[C@H](O)[C@@H](CO)O2)cc1C(F)(F)F .
OUTPUT: 99.5

INPUT: Give the measured Long-term stability, 3 month, -80°C Accuracy [%] of COc1cc2c(Nc3ccc(Br)cc3F)ncnc2cc1OCC1CCN(C)CC1 .
OUTPUT: 101.7

INPUT: Give the measured Long-term stability, 3 month, -80°C Accuracy [%] of COc1cc2nccc(Oc3ccc(NC(=O)C4(C(=O)Nc5ccc(F)cc5)CC4)cc3)c2cc1OC [Cabozantinib] .
OUTPUT: 94.6

INPUT: Give the measured Long-term stability, 3 month, -80°C Accuracy [%] of C[C@]12CC[C@H](O)CC1=CC[C@@H]1[C@@H]2CC[C@]2(C)C(c3cccnc3)=CC[C@@H]12 .
OUTPUT: 97.9

INPUT: Give the measured Long-term stability, 3 month, -80°C Accuracy [%] of CNC(=O)c1cc(Oc2ccc(NC(=O)Nc3ccc(Cl)c(C(F)(F)F)c3)cc2)ccn1 .
OUTPUT: 108.7

INPUT: Give the measured Long-term stability, 3 month, -80°C Accuracy [%] of C=CC(=O)Nc1cc(Nc2nccc(-c3cn(C)c4ccccc34)n2)c(OC)cc1N(C)CCN(C)C .
OUTPUT: 100.0

INPUT: Give the measured Long-term stability, 3 month, -80°C Accuracy [%] of N#CC[C@H](C1CCCC1)n1cc(-c2ncnc3[nH]ccc23)cn1 .
OUTPUT: 99.4

INPUT: Give the measured Long-term stability, 3 month, -80°C Accuracy [%] of CCN(CC)CCNC(=O)c1c(C)[nH]c(/C=C2\C(=O)Nc3ccc(F)cc32)c1C .
OUTPUT: 131.1

INPUT: Give the measured Long-term stability, 3 month, -80°C Accuracy [%] of O=C1CCC(N2C(=O)c3ccccc3C2=O)C(=O)N1 (stereo not shown) [Thalidomide] .
OUTPUT: 79.8

INPUT: Give the measured Long-term stability, 3 month, -80°C Accuracy [%] of Nc1cccc2c1CN(C1CCC(=O)NC1=O)C2=O (stereo not shown) [Lenalidomide] .
OUTPUT: 104.1

INPUT: Give the measured Long-term stability, 3 month, -80°C Accuracy [%] of COc1cc2nccc(Oc3ccc(NC(=O)NC4CC4)c(Cl)c3)c2cc1C(N)=O .
OUTPUT: 104.8

INPUT: Give the measured Long-term stability, 3 month, -80°C Accuracy [%] of O=C(c1cc(Cc2n[nH]c(=O)c3ccccc23)ccc1F)N1CCN(C(=O)C2CC2)CC1 .
OUTPUT: 103.3

INPUT: Give the measured Long-term stability, 3 month, -80°C Accuracy [%] of O=C1CN2Cc3c(ccc(Cl)c3Cl)N=C2N1 [Anagrelide] .
OUTPUT: 114.9

INPUT: Give the measured Long-term stability, 3 month, -80°C Accuracy [%] of CCc1cc2c(cc1N1CCC(N3CCOCC3)CC1)C(C)(C)c1[nH]c3cc(C#N)ccc3c1C2=O .
OUTPUT: 86.1

INPUT: Give the measured Long-term stability, 3 month, -80°C Accuracy [%] of CNC(=O)c1ccc(N2C(=S)N(c3cnc(C#N)c(C(F)(F)F)c3)C(=O)C23CCC3)cc1F [Apalutamide] .
OUTPUT: 94.9

INPUT: Give the measured Long-term stability, 3 month, -80°C Accuracy [%] of CCC1=C[C@@H]2CN(C1)Cc1c([nH]c3ccccc13)[C@@](C(=O)OC)(c1cc3c(cc1OC)N(C)[C@H]1[C@@](O)(C(=O)OC)[C@H](OC(C)=O)[C@]4(CC)C=CCN5CC[C@]31[C@@H]54)C2 .
OUTPUT: 97.8

INPUT: Give the measured Long-term stability, 3 month, -80°C Accuracy [%] of C#Cc1cccc(Nc2ncnc3cc(OCCOC)c(OCCOC)cc23)c1 .
OUTPUT: 105.8

INPUT: Give the measured Long-term stability, 3 month, -80°C Accuracy [%] of CNC(=O)c1ccc(N2C(=S)N(c3ccc(C#N)c(C(F)(F)F)c3)C(=O)C2(C)C)cc1F [Enzalutamide] .
OUTPUT: 89.0

INPUT: Give the measured Long-term stability, 3 month, -80°C Accuracy [%] of O=C(Nc1cnn2ccc(N3CCC[C@@H]3c3cc(F)ccc3F)nc12)N1CC[C@H](O)C1 .
OUTPUT: 98.8

INPUT: Give the measured Long-term stability, 3 month, -80°C Accuracy [%] of Cc1nc(Nc2ncc(C(=O)Nc3c(C)cccc3Cl)s2)cc(N2CCN(CCO)CC2)n1 .
OUTPUT: 99.1

Values were extracted from paper PMC8699473.
